tested on: jimpy (Plp1 jimpy) mouse iPSC-derived oligodendrocyte progenitor cells; assay: MBP+ mature oligodendrocyte number relative to DMSO vehicle control (SDs above negative control mean); higher = more surviving jimpy oligodendrocytes (rescue); conditions: 10 µM; 3 days;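 also: 10 µM single dose with 3-day oligodendrocyte differentiation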
Where a name gives a salt, the structure may show the parent alone. The full ranking holds about 2,600 compounds; the median of “MBP+ mature oligodendrocyte number relative to DMSO vehicle control” is about -0.34, and the highest 2% start at about 13. Only a selection was taken, and the highest values are over-represented in it overall.
measurement_label: MBP+ mature oligodendrocyte number
Answers are plain numbers.

compound | MBP+ mature oligodendrocyte number
CCCC(CCC)C(=O)O [Valproic acid sodium] | 0.147

Respectfully, I request MBP+ mature oligodendrocyte number for each entry included below.
1. CCCC(CCC)C(=O)O[C@H]1C[C@H]2CC[C@@H](C1)[N+]2(C)C [Anisotropine methyl bromide]
2. Cc1ccc(NC(=O)c2ccc(CN3CCN(C)CC3)cc2)cc1Nc1nccc(-c2cccnc2)n1 [Imatinib (STI571)]
3. CC(C)[N+]1(C)[C@@H]2CC[C@H]1C[C@@H](OC(=O)C(CO)c1ccccc1)C2 (some centres undefined) [Ipratropium Bromide]
4. CCCC(CCC)C(=O)O [Divalproex Sodium]

Return:
1: 32.5; 2: -4.36; 3: 0.883; 4: 2.05

Respectfully, I request MBP+ mature oligodendrocyte number for each entry included below.
1. Cc1cc(-c2ncc(CC(=O)Nc3ccc(-c4cnccn4)cn3)cc2C)ccn1
2. Cc1cc(-c2ccc(CC(=O)Nc3ccc(-c4cccnc4)cc3)cc2)ccn1
3. C=CC(=O)Nc1cccc(Nc2nc(Nc3ccc(Oc4ccnc(C(=O)NC)c4)cc3)ncc2F)c1
4. CCCC(CCC)C(=O)O [Valproic acid sodium salt (Sodium valproate)]

Return:
1: 13.8; 2: 23.2; 3: -6.27; 4: 0.72

====

tested on: jimpy (Plp1 jimpy) mouse iPSC-derived oligodendrocyte progenitor cells; assay: MBP+ mature oligodendrocyte number relative to DMSO vehicle control (SDs above negative control mean); higher = more surviving jimpy oligodendrocytes (rescue); settings: 10 µM; 3 days;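 also: 10 µM single dose with 3-day oligodendrocyte differentiation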
Structures can show the parent of a compound that is named as a salt. In all, about 2,600 compounds were measured (“MBP+ mature oligodendrocyte number relative to DMSO vehicle control”: median about -0.34, highest 2% from about 13 on). This excerpt belongs to a sample that is enriched for the highest values.
measurement_label: MBP+ mature oligodendrocyte number

Here are 5 molecules together with their reported answers.
molecule | MBP+ mature oligodendrocyte number
CO[C@H]1C[C@@H]2CC[C@@H](C)[C@@](O)(O2)C(=O)C(=O)N2CCCC[C@H]2C(=O)O[C@H]([C@H](C)C[C@@H]2CC[C@@H](O)[C@H](OC)C2)CC(=O)[C@H](C)/C=C(\C)[C@@H](O)[C@@H](OC)C(=O)[C@H](C)C[C@H](C)/C=C/C=C/C=C/1C [Rapamycin (Sirolimus)] | -5.74
C[C@]12CC[C@@H]3c4ccc(O)cc4CC[C@H]3[C@@H]1CC[C@@H]2O [Estradiol] | 5.47
C[C@]12CC[C@@H]3c4ccc(O)cc4CC[C@H]3[C@@H]1CCC2=O [Estrone] | 21.6
C[C@]12CC[C@@H]3c4ccc(O)cc4CC[C@H]3[C@@H]1C[C@@H](O)[C@@H]2O [Estriol] | -0.78
O=c1cc(-c2ccccc2)oc2cc(O)cc(O)c12 [Chrysin] | 4.59

Respectfully, I request MBP+ mature oligodendrocyte number for each entry included below.
1. Cc1ccc(Nc2c(F)cccc2Cl)c(CC(=O)O)c1 [Lumiracoxib]
2. C[C@@H](O[C@H]1OCCN(Cc2nn(P(=O)(O)O)c(=O)[nH]2)[C@H]1c1ccc(F)cc1)c1cc(C(F)(F)F)cc(C(F)(F)F)c1 [Fosaprepitant dimeglumine salt]
3. Nc1ccc2ncnc(NCCc3ccc(Oc4ccccc4)cc3)c2c1
4. CC1(C)O[C@@H]2C[C@H]3[C@@H]4CCC5=CC(=O)C=C[C@]5(C)[C@H]4[C@@H](O)C[C@]3(C)[C@]2(C(=O)CO)O1 [Desonide]
5. CCCC1O[C@@H]2C[C@H]3[C@@H]4CCC5=CC(=O)C=C[C@]5(C)[C@H]4[C@@H](O)C[C@]3(C)[C@]2(C(=O)CO)O1 (some centres undefined) [Budesonide]
6. COc1cc2c(cc1O)[C@@H](Cc1ccc(O)c(Oc3ccc(C[C@@H]4c5cc(OC)c(OC)cc5CCN4C)cc3)c1)N(C)CC2 [Daurisoline]
7. O=c1sn(-c2cccc3ccccc23)c(=O)n1Cc1ccccc1 [Tideglusib]

Return:
0.263
-2.44
< -6.35
9.44
13.4
< -3.85
-0.769

Respectfully, I request MBP+ mature oligodendrocyte number for each entry included below.
1. C[C@H]1O[C@@H](Oc2c(-c3cc(O)c(O)c(O)c3)oc3cc(O)cc(O)c3c2=O)[C@@H](O)[C@@H](O)[C@@H]1O [Myricitrin]
2. C[C@]12CC[C@@H]3c4ccc(O)cc4CC[C@H]3[C@@H]1CC[C@@H]2O [beta-Estradiol]

Return:
0.507
3.17
